test system: Haemophilus influenzae; assay: Antibacterial activity against Haemophilus influenzae 2762; assay type: functional
Listing of entries alongside the reported MIC.
OUTCOME_MEASURE: MIC

SMILES_STRUCTURE	OUTCOME_MEASURE	OBS_VALUE
C=C[C@]12OC(=O)N(CCCCn3cnc4c(C)ncnc43)[C@@H]1[C@@H](C)C(=O)[C@H](C)C[C@@](C)(OC)[C@H](O[C@@H]1O[C@H](C)C[C@H](N(C)C)[C@H]1O)[C@@H](C)C(=O)[C@@H](C)C(=O)O[C@@H]2CC	MIC	0.78 µg/mL
C=C[C@]12OC(=O)N(CCCCn3cnc(-c4cnc(OC)nc4)c3)[C@@H]1[C@@H](C)C(=O)[C@H](C)C[C@@](C)(OC)[C@H](O[C@@H]1O[C@H](C)C[C@H](N(C)C)[C@H]1O)[C@@H](C)C(=O)[C@@H](C)C(=O)O[C@@H]2CC	MIC	0.78 µg/mL
C=C[C@]12OC(=O)N(CCCCn3cnc(-c4ccc(NC)nc4)c3)[C@@H]1[C@@H](C)C(=O)[C@H](C)C[C@@](C)(OC)[C@H](O[C@@H]1O[C@H](C)C[C@H](N(C)C)[C@H]1O)[C@@H](C)C(=O)[C@@H](C)C(=O)O[C@@H]2CC	MIC	0.78 µg/mL
C=C[C@]12OC(=O)N(CCCCn3ccc4ncccc43)[C@@H]1[C@@H](C)C(=O)[C@H](C)C[C@@](C)(OC)[C@H](O[C@@H]1O[C@H](C)C[C@H](N(C)C)[C@H]1O)[C@@H](C)C(=O)[C@@H](C)C(=O)O[C@@H]2CC	MIC	1.56 µg/mL
C=C[C@]12OC(=O)N(CCCCn3ccc4nc(C(C)=O)ccc43)[C@@H]1[C@@H](C)C(=O)[C@H](C)C[C@@](C)(OC)[C@H](O[C@@H]1O[C@H](C)C[C@H](N(C)C)[C@H]1O)[C@@H](C)C(=O)[C@@H](C)C(=O)O[C@@H]2CC	MIC	0.2 µg/mL
C=C[C@]12OC(=O)N(CCCCn3cc(-c4ccc(Cl)nc4)nc3C)[C@@H]1[C@@H](C)C(=O)[C@H](C)C[C@@](C)(OC)[C@H](O[C@@H]1O[C@H](C)C[C@H](N(C)C)[C@H]1O)[C@@H](C)C(=O)[C@@H](C)C(=O)O[C@@H]2CC	MIC	1.56 µg/mL

* * *

tested on: Enterococcus faecalis; experiment: Antibacterial activity against Enterococcus faecalis bc11148-2; type: functional
OUTCOME_MEASURE: MIC (µg/mL)

SMILES_STRUCTURE	OUTCOME_MEASURE	ENDPOINT_UNIT	OBS_VALUE
C=C[C@]12OC(=O)N(CCCCn3cnc4ncccc43)[C@@H]1[C@@H](C)C(=O)[C@H](C)C[C@@](C)(OC)[C@H](O[C@@H]1O[C@H](C)C[C@H](N(C)C)[C@H]1O)[C@@H](C)C(=O)[C@@H](C)C(=O)O[C@@H]2CC	MIC	µg/mL	0.78
C=C[C@]12OC(=O)N(CCCCn3cnc4cccnc43)[C@@H]1[C@@H](C)C(=O)[C@H](C)C[C@@](C)(OC)[C@H](O[C@@H]1O[C@H](C)C[C@H](N(C)C)[C@H]1O)[C@@H](C)C(=O)[C@@H](C)C(=O)O[C@@H]2CC	MIC	µg/mL	0.78
C=C[C@]12OC(=O)N(CCCCn3cnc(-c4ccc(C)nc4)c3)[C@@H]1[C@@H](C)C(=O)[C@H](C)C[C@@](C)(OC)[C@H](O[C@@H]1O[C@H](C)C[C@H](N(C)C)[C@H]1O)[C@@H](C)C(=O)[C@@H](C)C(=O)O[C@@H]2CC	MIC	µg/mL	0.78

The values you see were collected from ChEMBL document CHEMBL1138190.
